Source of measurements: patent US20040138230A1

VALUE_KIND: melting point

Some solved cases for reference:
CN1Cc2c(c3cc(CCN4CCN(c5nsc6ccccc56)CC4)ccc3[nH]c2=O)C1 [Example 173] : 205 to 207 °C
CC1Cc2cc(CCCN3CCN(c4nsc5ccccc45)CC3)ccc2NC1=O (stereo not shown) [Example 59] : 212 °C
CC1Cc2cc(CCCN3CCN(c4noc5ccccc45)CC3)ccc2NC1=O (stereo not shown) [Example 60] : 185 to 187 °C

Please examine the following record next.
Request: Name the recorded melting point for CN1Cc2c(c3cc(CCCN4CCN(c5nsc6ccccc56)CC4)ccc3[nH]c2=O)C1 [Example 172] .
Result: 206 to 208 °C

###

Recorded Ki for the following compounds
molecular target: serotonin 2A (5HT2A) receptor (Homo sapiens, UniProt P28223)
Sequence (P28223 whole entry): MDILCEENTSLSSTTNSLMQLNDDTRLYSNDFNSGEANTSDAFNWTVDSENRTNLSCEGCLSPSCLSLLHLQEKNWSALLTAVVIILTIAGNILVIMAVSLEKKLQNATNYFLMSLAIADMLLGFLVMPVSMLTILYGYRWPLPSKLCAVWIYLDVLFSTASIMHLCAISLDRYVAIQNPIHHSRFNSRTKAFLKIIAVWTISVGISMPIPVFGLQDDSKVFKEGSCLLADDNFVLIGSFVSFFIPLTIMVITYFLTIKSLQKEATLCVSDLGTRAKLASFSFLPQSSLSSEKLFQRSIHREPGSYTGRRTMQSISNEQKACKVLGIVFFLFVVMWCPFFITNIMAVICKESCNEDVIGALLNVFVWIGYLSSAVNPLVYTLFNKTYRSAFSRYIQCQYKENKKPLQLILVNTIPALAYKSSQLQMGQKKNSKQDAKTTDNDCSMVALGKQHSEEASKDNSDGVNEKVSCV
Report the value in nM with no unit label.

CC1(C)Cc2cc(CCN3CCN(c4noc5ccccc45)CC3)ccc2NC1=O [Example 8] : 5

Please examine the following record next.
Request: Please state recorded Ki (tested on serotonin 2A (5HT2A) receptor (Homo sapiens, UniProt P28223)) of Cc1c(Cl)c(CCN2CCN(c3nsc4ccccc34)CC2)cc2c1NC(=O)CC2(C)C [Example 23, METHANESULFONATE]
Result: 1

###

A short record of Ki observed with dopamine D2 receptor (Homo sapiens, UniProt P14416) follows.
Sequence (P14416 whole entry): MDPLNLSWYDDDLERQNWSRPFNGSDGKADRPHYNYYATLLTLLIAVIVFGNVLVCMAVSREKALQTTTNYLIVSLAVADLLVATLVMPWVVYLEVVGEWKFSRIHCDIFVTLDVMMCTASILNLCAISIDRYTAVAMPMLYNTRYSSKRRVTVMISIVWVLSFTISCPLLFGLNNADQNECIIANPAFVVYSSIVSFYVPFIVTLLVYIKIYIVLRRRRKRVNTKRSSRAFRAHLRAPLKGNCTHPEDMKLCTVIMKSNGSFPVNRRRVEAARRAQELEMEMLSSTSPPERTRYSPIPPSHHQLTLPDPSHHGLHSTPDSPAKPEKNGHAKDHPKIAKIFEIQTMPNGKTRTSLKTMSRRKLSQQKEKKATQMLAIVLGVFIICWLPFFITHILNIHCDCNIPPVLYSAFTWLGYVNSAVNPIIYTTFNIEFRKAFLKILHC
Answer shape: numeric part, then the unit.

Request: Name the recorded Ki for Cc1c(Cl)c(CCN2CCN(c3nsc4ccccc34)CC2)cc2c1NC(=O)CC2(C)C [Example 23, METHANESULFONATE] .
Result: 0.9 nM

Request: Name the recorded Ki for CC1(C)Cc2cc(CCN3CCN(c4noc5ccccc45)CC3)ccc2NC1=O .
Result: 7 nM

Request: Name the recorded Ki for COc1cccc2c(N3CCN(CCc4cc(C)c5c(c4)C(C)(C)CC(=O)N5)CC3)nsc12 .
Result: 1 nM
